Molecular target: glCK (Giardia intestinalis, UniProt A8BB85)
Sequence (A8BB85 1-316): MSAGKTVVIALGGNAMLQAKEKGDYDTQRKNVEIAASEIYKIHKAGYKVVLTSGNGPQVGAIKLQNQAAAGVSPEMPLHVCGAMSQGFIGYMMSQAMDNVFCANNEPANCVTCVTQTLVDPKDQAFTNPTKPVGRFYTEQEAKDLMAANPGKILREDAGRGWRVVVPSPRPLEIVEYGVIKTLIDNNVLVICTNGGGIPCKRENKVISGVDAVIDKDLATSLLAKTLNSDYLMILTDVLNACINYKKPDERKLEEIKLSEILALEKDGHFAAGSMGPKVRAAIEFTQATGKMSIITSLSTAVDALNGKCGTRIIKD
Assay: Absorbance-based carbamate kinase assay
Format: biochemical, Giardia lamblia
test_readout: IC50 (nM)

1) Oc1cccc(O)c1O [Pyrogallol]: 2700
2) CN(C)C(=S)SSC(=S)N(C)C [Thiram]: 640

(a) O=C(O)Cc1ccc(O)c(O)c1 [3,4-Dihydroxyphenylacetic acid]
(b) CCN(CC)C(=S)SSC(=S)N(CC)CC [Disulfiram]
Of a and b , which one carries the higher reported IC50? Field: selected label. Fill in the label of the entry you choose. a
(a: 11700 nM, b: 1390 nM)
